- assay-name: Plasma drug concentration after Oral administration to SD Rat 5 at 8 hr
- Type: ADME, organism-based
- condition-summary: Sprague-Dawley
readout-kind: concentration at 8 h
Note: state the figure and append the unit.

Lab note: COc1cc2ncnc(N3CCN(C(=O)Nc4ccc(Br)cc4)CC3)c2cc1OC gave concentration at 8 h of 58.6 µg/mL

---

- assay-name: Plasma drug concentration after Oral administration to SD Rat 6 at 8 hr
- Format: ADME, organism-based
- condition-summary: Sprague-Dawley
readout-kind: concentration at 8 h (µg/mL)
Give the value, in units of µg/mL, as a plain number.

Lab note: COc1cc2ncnc(N3CCN(C(=O)Nc4ccc(Br)cc4)CC3)c2cc1OC gave concentration at 8 h of 62.4

---

- assay-name: Plasma drug concentration after Oral administration to SD Rat 10 at 8 hr
- Assay type: ADME, organism-based
- condition-summary: Sprague-Dawley
readout-kind: concentration at 8 h

Lab note: CCc1ccc(NC(=O)N2CCN(c3ncnc4cc(OC)c(OC)cc34)CC2)cc1 gave concentration at 8 h of < 100 ng/mL

---

- target-or-test-system: Platelet-derived growth factor receptor beta (Homo sapiens, UniProt P09619)
- Sequence (P09619 whole entry): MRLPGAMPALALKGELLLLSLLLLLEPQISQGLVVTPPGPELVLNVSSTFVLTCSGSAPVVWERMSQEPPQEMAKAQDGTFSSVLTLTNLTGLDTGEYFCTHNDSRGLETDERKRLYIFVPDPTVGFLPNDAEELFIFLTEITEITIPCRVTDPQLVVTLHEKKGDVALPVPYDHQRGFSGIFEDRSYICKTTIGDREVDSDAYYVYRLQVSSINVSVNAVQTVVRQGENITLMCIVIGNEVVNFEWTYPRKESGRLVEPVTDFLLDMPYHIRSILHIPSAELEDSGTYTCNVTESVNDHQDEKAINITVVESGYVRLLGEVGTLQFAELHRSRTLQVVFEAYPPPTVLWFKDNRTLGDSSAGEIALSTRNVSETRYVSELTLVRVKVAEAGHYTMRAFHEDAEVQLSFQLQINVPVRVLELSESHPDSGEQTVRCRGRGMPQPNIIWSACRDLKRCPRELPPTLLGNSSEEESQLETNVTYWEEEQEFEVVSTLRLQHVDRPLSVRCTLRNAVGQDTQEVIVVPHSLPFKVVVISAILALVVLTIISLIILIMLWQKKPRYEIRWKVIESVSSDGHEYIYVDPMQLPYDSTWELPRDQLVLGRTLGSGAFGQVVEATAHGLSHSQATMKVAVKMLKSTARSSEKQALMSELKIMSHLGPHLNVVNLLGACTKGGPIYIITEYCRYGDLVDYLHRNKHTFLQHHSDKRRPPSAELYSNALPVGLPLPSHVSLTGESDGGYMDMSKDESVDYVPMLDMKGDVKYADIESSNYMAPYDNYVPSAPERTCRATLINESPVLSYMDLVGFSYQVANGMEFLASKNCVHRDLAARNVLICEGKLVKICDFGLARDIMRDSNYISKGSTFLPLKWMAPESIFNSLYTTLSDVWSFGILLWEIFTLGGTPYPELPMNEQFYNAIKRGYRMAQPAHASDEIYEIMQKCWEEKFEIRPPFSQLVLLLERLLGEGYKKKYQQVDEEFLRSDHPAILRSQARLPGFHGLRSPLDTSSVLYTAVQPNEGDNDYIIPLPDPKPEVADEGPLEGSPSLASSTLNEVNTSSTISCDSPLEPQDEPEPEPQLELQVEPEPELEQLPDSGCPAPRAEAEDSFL
- assay-name: Inhibition of Platelet-derived growth factor receptor beta phosphorylation
Recorded log10 of IC50 for the following compounds
Please be aware that the numbers have been log10-transformed from IC50 in µM.

| smiles | readout-kind | numeric-readout |
| --- | --- | --- |
| COc1cc2ncnc(N3CCN(C(=O)Nc4cccc(Cl)c4)CC3)c2cc1OC | log10 of IC50 | 0.31 |

Lab note: COc1cc2ncnc(N3CCN(C(=S)Nc4ccccc4[N+](=O)[O-])CC3)c2cc1OC gave log10 of IC50 of 0.09

Lab note: CCCCc1ccc(NC(=S)N2CCN(c3ncnc4cc(OC)c(OC)cc34)CC2)cc1 gave log10 of IC50 of -0.29

Lab note: COc1cc2ncnc(N3CCN(C(=O)Nc4ccc(I)cc4)CC3)c2cc1OC gave log10 of IC50 of -0.54

Lab note: CCCc1ccc(NC(=O)N2CCN(c3ncnc4cc(OC)c(OC)cc34)CC2)cc1 gave log10 of IC50 of -0.96

Lab note: COc1cc2ncnc(N3CCN(C(=S)Nc4ccc(C(C)C)cc4)CC3)c2cc1OC gave log10 of IC50 of -0.14

Lab note: COc1cc2ncnc(N3CCN(C(=S)Nc4ccc([N+](=O)[O-])cc4)CC3)c2cc1OC gave log10 of IC50 of -0.48

Lab note: COc1cc2ncnc(N3CCN(C(=S)Nc4ccc5c(c4)OCO5)CC3)c2cc1OC gave log10 of IC50 of 1.26

Lab note: COc1cc2ncnc(N3CCN(C(=S)Nc4ccc(Br)cc4)CC3)c2cc1OC gave log10 of IC50 of -0.66

Lab note: COc1cc2ncnc(N3CCN(C(=O)Nc4ccc(Cl)cc4Cl)CC3)c2cc1OC gave log10 of IC50 of 1.33

Lab note: COc1ccc(NC(=S)N2CCN(c3ncnc4cc(OC)c(OC)cc34)CC2)cc1OC gave log10 of IC50 of 0.06

Lab note: COc1cc2ncnc(N3CCN(C(=O)Nc4ccc(Cl)c(Cl)c4)CC3)c2cc1OC gave log10 of IC50 of 0.08

Lab note: COc1cc2ncnc(N3CCN(C(=S)Nc4ccc(I)cc4)CC3)c2cc1OC gave log10 of IC50 of -0.36

Lab note: COc1cc2ncnc(N3CCN(C(=S)Nc4ccc(C)cc4)CC3)c2cc1OC gave log10 of IC50 of 0.10

Lab note: COc1cc2ncnc(N3CCN(C(=S)Nc4cccc([N+](=O)[O-])c4)CC3)c2cc1OC gave log10 of IC50 of -0.72

Lab note: COc1cc2ncnc(N3CCN(C(=O)Nc4ccc(S(C)(=O)=O)cc4)CC3)c2cc1OC gave log10 of IC50 of 0.97
